Documented pKd across a set of binders
Target: T1, recombinant human FZD5-Fc chimera (R&D Systems, Catalog no. 1617-FZ) (human, UniProt Q13467 27-167)
T1 construct: used for selection and ELISA; Fc part of the bought chimera not given
T1 sequence: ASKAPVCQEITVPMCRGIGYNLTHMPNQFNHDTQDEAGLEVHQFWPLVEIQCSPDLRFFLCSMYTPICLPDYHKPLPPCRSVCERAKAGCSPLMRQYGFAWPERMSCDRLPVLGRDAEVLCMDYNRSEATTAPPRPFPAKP
Test: SPR, Frizzled-Fc chimera;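 further: binding targets are Fc fusions carrying an extracellular Frizzled fragment that contains the CRD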
Please note pKd is a logarithmic value: minus log10 of concentration in mol/L. Answer with that number alone.

Worked examples follow.
IgG-2919 (antibody, V domains shown, human IgG1 heavy chain (hG1), human kappa light chain (hK)) VH: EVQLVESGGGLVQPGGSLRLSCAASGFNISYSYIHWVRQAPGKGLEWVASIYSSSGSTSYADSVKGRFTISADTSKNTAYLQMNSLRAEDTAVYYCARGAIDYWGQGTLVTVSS VL: DIQMTQSPSSLSASVGDRVTITCRASQSVSSAVAWYQQKPGKAPKLLIYSASSLYSGVPSRFSGSRSGTDFTLTISSLQPEDFATYYCQQWYSSGHVLITFGQGTKVEIKR    9.71
IgG-2920 (antibody, V domains shown) VH: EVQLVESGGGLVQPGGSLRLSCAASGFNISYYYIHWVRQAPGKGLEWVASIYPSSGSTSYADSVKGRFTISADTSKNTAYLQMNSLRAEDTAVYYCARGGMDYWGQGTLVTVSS VL: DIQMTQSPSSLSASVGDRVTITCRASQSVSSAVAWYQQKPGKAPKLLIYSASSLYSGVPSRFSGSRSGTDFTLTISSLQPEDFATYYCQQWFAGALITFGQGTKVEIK    10.05
IgG-2910 (antibody, V domains shown) VH: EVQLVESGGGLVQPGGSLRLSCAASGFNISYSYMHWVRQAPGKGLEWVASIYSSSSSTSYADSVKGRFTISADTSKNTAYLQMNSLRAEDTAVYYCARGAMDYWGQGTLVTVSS VL: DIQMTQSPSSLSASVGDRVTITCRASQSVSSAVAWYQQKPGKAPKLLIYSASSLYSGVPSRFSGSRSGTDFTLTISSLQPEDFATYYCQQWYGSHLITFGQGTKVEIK    9.94

Consider now this further binder.
Complete the entry with pKd for IgG-2916 (antibody, V domains shown) VH: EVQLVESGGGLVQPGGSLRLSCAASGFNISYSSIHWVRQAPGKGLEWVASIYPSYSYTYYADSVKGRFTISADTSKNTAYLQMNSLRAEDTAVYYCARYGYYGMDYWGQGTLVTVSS VL: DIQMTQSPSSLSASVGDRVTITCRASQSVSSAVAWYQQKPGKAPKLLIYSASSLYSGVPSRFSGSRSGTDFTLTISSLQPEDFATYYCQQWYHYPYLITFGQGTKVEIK
11.01
